Experiment: Metabolic stability in mouse liver microsomes assessed as compound remaining measured after 60 mins
Type: ADME, Microsome
Details: read-out: Stabilty
Readout type: remaining at 1 h (%)
One number for each entry, in %.

## Task Specify measured remaining at 1 h for N#Cc1ccc(-c2ccc(C[C@@H](C#N)NC(=O)[C@@H]3C[C@@H]4CCC[C@@H]4N3)cc2)cc1 .
## Result 6

###

Biological target: CYP3A4 (Homo sapiens, UniProt P08684)
Sequence (P08684 whole entry): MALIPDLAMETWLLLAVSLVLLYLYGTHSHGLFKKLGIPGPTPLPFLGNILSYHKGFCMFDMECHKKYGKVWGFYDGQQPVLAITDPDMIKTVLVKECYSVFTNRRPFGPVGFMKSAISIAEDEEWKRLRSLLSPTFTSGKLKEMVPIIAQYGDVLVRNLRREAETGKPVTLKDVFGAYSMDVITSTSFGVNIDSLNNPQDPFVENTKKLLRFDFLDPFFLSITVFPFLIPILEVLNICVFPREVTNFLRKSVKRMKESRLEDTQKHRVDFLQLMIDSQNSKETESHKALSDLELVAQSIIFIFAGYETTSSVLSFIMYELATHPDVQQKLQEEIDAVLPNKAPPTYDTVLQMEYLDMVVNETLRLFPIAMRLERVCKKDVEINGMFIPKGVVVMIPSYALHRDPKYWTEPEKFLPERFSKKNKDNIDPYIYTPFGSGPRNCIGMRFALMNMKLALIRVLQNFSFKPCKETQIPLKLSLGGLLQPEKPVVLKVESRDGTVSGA
Test: Inhibition of CYP3A4 (unknown origin) at 1 uM relative to control
Assay type: ADME
Readout type: inhibition at 1 µM (%)
Answers are plain numbers, in %.

## Task In one line, give reported inhibition at 1 µM of the entry N#Cc1ccc(-c2ccc(C[C@@H](C#N)NC(=O)[C@@H]3C[C@@H]4CCC[C@@H]4N3)cc2)cc1 .
## Result 2.2

###

Assay: Half life of the compound in 0.1M phosphate buffer at pH 7.4 by HPLC-UV analysis
Format: physicochemical
For each record, write down the corresponding half-life.

Some solved cases for reference:
| Compound | Value measured |
| --- | --- |
| Cn1c(=O)oc2ccc(-c3ccc(C[C@@H](C#N)NC(=O)[C@@H]4CNCCCO4)cc3)cc21 [BRENSOCATIB] | > 900 min |
| N#Cc1ccc(-c2ccc(C[C@@H](C#N)NC(=O)[C@@H]3C[C@H]4CCC[C@H]4N3)cc2)cc1 | 318 min |
| N#Cc1ccc(-c2ccc(C[C@@H](C#N)NC(=O)[C@@H]3CC4(CCCC4)CN3)cc2)cc1 | 33.6 min |

I need half-life for every entry listed below, if you could help.
1. N#Cc1ccc(-c2ccc(C[C@@H](C#N)NC(=O)[C@@H]3CCCN3)cc2)cc1
2. N#Cc1ccc(-c2ccc(C[C@@H](C#N)NC(=O)[C@@H]3COCCN3)cc2)cc1
3. N#Cc1ccc(-c2ccc(C[C@@H](C#N)NC(=O)[C@@H]3C[C@@H]4CCC[C@@H]4N3)cc2)cc1
4. N#Cc1ccc(-c2ccc(C[C@@H](C#N)NC(=O)C3(N)CCOCC3)cc2)cc1

## Result
1. 33.6 min
2. 945 min
3. > 900 min
4. 21.6 min

###

Biological target: CYP2C9 (Homo sapiens, UniProt P11712)
Sequence (P11712 whole entry): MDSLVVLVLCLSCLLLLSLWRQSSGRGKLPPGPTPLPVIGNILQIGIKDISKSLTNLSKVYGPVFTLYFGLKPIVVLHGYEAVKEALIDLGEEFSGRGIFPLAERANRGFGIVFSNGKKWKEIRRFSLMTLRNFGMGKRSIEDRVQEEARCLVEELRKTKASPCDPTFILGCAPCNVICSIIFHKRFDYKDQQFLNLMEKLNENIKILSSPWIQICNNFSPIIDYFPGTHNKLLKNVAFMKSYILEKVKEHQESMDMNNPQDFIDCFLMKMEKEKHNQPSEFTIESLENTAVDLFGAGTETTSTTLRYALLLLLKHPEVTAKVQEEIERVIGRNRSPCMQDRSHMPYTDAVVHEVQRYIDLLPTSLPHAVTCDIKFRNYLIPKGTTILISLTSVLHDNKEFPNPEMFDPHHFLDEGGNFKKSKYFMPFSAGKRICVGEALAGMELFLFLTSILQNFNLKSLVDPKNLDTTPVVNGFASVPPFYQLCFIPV
Experiment: Inhibition of CYP2C9 (unknown origin) at 10 uM relative to control
Format: ADME
Readout type: inhibition at 10 µM (%)
Numbers only, in %.

## Task # assay system CYP2C9 (Homo sapiens, UniProt P11712): give inhibition at 10 µM of N#Cc1ccc(-c2ccc(C[C@@H](C#N)NC(=O)[C@@H]3C[C@@H]4CCC[C@@H]4N3)cc2)cc1
## Result 32.4

###

Assay: Aldehyde reactivity of the compound in 0.1M phosphate buffer assessed as compound remaining at pH 7.4 measured after 2 hrs in presence of propionaldehyde by HPLC-UV analysis
Format: ADME
Conditions: phosphate buffer with propionaldehyde, read-out: Stabilty
Readout type: remaining at 2 h (%)
Give bare numbers, in %.

## Task Please give measured remaining at 2 h of the following entry: N#Cc1ccc(-c2ccc(C[C@@H](C#N)NC(=O)[C@@H]3CCCN3)cc2)cc1
## Result 8.5

###

Assay: Aldehyde reactivity of the compound in 0.1M phosphate buffer assessed as compound remaining at pH 7.4 measured after 1 hr in presence of propionaldehyde by HPLC-UV analysis
Assay type: ADME
Settings: phosphate buffer with propionaldehyde, read-out: Stabilty
Readout type: remaining at 1 h
Could you give the number and then its unit, please?

## Task Give the value of remaining at 1 h reported for the following: N#Cc1ccc(-c2ccc(C[C@@H](C#N)NC(=O)C3(N)CCOCC3)cc2)cc1
## Result 15%

All figures here come from ChEMBL document CHEMBL4811305.
